# tgt: furin, P09958
# Sequence (P09958 whole entry): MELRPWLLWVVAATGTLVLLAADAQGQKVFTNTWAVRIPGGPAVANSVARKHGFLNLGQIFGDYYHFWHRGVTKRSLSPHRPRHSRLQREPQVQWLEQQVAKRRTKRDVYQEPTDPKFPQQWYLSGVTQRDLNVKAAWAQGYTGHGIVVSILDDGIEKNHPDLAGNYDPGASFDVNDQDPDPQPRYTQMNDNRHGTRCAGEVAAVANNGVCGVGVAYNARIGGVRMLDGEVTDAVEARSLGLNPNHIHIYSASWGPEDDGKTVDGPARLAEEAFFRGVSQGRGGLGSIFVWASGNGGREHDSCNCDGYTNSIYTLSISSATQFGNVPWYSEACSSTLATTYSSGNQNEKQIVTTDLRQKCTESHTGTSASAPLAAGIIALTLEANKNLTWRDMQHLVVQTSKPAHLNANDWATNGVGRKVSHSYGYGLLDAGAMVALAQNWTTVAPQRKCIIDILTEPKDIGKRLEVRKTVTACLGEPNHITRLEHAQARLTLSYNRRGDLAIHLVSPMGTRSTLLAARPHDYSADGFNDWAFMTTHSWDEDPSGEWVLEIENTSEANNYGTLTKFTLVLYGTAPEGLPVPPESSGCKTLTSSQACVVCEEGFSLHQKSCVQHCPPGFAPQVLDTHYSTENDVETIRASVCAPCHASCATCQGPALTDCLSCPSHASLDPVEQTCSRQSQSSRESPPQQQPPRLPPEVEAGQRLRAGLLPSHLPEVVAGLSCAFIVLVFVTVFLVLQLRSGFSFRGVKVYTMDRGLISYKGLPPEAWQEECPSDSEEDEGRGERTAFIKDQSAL
# method.description: furin cleavage Z-score vs untreated control; higher = more cleavage, active = 3.5 or more, inactive = 1 or less, 8 variable residues between constant flanks;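 note: purified furin at 1:10 enzyme:substrate in 50 mM HEPES pH 7.5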
# condition.summary: 7.5 min
The other results are listed elsewhere or left out. The hit rate among all sequences tested is not known here.
Each entry gets not satisfied if its furin cleavage Z-score stays under 0.8, and satisfied if its furin cleavage Z-score is 0.8 or above.

For this sequence, is measured furin cleavage Z-score 0.8 or higher? CAMLKRFARMAGNASASA [FS-1036]
satisfied

For this sequence, is measured furin cleavage Z-score 0.8 or higher? CAGNNTLHCPAGNASASA [HC448]
satisfied

For this sequence, is measured furin cleavage Z-score 0.8 or higher? CAAKRRPRRMAGNASASA [FS-1302]
satisfied

For this sequence, is measured furin cleavage Z-score 0.8 or higher? CALRGRSRRLAGNASASA [FS-135]
satisfied

For this sequence, is measured furin cleavage Z-score 0.8 or higher? CAGGRHLIFCAGNASASA [HC854]
not satisfied

For this sequence, is measured furin cleavage Z-score 0.8 or higher? CALTKRLKRHAGNASASA [FS-689]
satisfied

For this sequence, is measured furin cleavage Z-score 0.8 or higher? CARARRTTIYAGNASASA [FS-3151]
not satisfied
